Item-by-item account of abundance fitness
B1: DnaJ homolog subfamily C member 5, residues 16 to 77; numbered along this chain, Q9H3Z4 (parent)
chain: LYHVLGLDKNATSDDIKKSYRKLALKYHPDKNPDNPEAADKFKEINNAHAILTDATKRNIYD

Variants of: B1
Assay: abundance fitness (aPCA) (normalised: wild type 0, dead -1); higher = more abundant; growth selection in yeast, the domain comes from the species named
Settings: Homo sapiens
Give the value as a plain number.

Some variants with recorded abundance fitness:
{"mutantId": "Y27V", "abundance fitness": -0.571}
{"mutantId": "Y2D", "abundance fitness": -0.18}
{"mutantId": "K43D", "abundance fitness": 0.015}
{"mutantId": "L52G", "abundance fitness": -0.555}
{"mutantId": "E37D", "abundance fitness": -0.238}

Exercise: // lookup abundance fitness for K43Q
Key: 0.362

Exercise: How about S19D ?
Key: -0.485

Exercise: K17P , same question.
Key: -1.31
